What relative viability was measured for each of the following?
# Test system: SW 900
# experimental.protocol: relative viability (nuclei count vs DMSO), 5 days (fraction); higher = more cells survive
# setup.conditions: first compound 0.03162 µM

Some molecules with known relative viability results, for comparison:
>  <molecule>
Cc1cn(-c2cc(NC(=O)c3ccc(C)c(Nc4nccc(-c5cccnc5)n4)c3)cc(C(F)(F)F)c2)cn1 [Nilotinib] + Cc1cc(Nc2cc(N3CCN(C)CC3)nc(Sc3ccc(NC(=O)C4CC4)cc3)n2)n[nH]1 [Tozasertib] (partner 0.1 µM)

>  <relative viability>
0.34

$$$$
>  <molecule>
Cc1cn(-c2cc(NC(=O)c3ccc(C)c(Nc4nccc(-c5cccnc5)n4)c3)cc(C(F)(F)F)c2)cn1 [Nilotinib] + CC(=O)c1c(C)c2cnc(Nc3ccc(N4CCNCC4)cn3)nc2n(C2CCCC2)c1=O [Palbociclib] (partner 0.5 µM)

>  <relative viability>
0.455

$$$$

In the following, a different molecule is considered.
Req: Param item = Cc1cn(-c2cc(NC(=O)c3ccc(C)c(Nc4nccc(-c5cccnc5)n4)c3)cc(C(F)(F)F)c2)cn1 [Nilotinib] + COc1cccc2cc(-c3nc([C@H]4CC[C@H](C(=O)O)CC4)n4ncnc(N)c34)[nH]c12 [OSI-027] (partner 0.5 µM) ; retrieve measured relative viability.
Resp: 0.354

---

# System: NCI-H650
# experimental.protocol: relative viability (nuclei count vs DMSO), 5 days (fraction); higher = more cells survive
# setup.conditions: first compound 0.03162 µM
measured.quantity: relative viability
Numbers only.

Report relative viability for each item below.
1. Cc1cn(-c2cc(NC(=O)c3ccc(C)c(Nc4nccc(-c5cccnc5)n4)c3)cc(C(F)(F)F)c2)cn1 [Nilotinib] + C[C@@H](Oc1cc(-c2cnn(C3CCNCC3)c2)cnc1N)c1c(Cl)ccc(F)c1Cl [Crizotinib] (partner 1 µM)
2. Cc1cn(-c2cc(NC(=O)c3ccc(C)c(Nc4nccc(-c5cccnc5)n4)c3)cc(C(F)(F)F)c2)cn1 [Nilotinib] + CC(=O)c1c(C)c2cnc(Nc3ccc(N4CCNCC4)cn3)nc2n(C2CCCC2)c1=O [Palbociclib] (partner 0.5 µM)

Resp:
0.601
0.305

---

What relative viability was measured for each of the following?
# System: NCI-H358
# experimental.protocol: relative viability (nuclei count vs DMSO), 5 days (fraction); higher = more cells survive
# setup.conditions: first compound 0.2 µM
Answers are plain numbers.

Some compounds with known relative viability results, for comparison:
>  <compound>
CN1CCN(CCOc2cc(OC3CCOCC3)c3c(Nc4c(Cl)ccc5c4OCO5)ncnc3c2)CC1 [Saracatinib] + CC(=O)Nc1cccc(-n2c(=O)n(C3CC3)c(=O)c3c(Nc4ccc(I)cc4F)n(C)c(=O)c(C)c32)c1 [Trametinib] (partner 0.02 µM)

>  <measured.on>
NCI-H358

>  <relative viability>
0.131

$$$$
>  <compound>
CN1CCN(CCOc2cc(OC3CCOCC3)c3c(Nc4c(Cl)ccc5c4OCO5)ncnc3c2)CC1 [Saracatinib] + CCNC(=O)c1noc(-c2cc(C(C)C)c(O)cc2O)c1-c1ccc(CN2CCOCC2)cc1 [Luminespib] (partner 0.01 µM)

>  <measured.on>
NCI-H358

>  <relative viability>
0.208

$$$$

Req: Param item = CN1CCN(CCOc2cc(OC3CCOCC3)c3c(Nc4c(Cl)ccc5c4OCO5)ncnc3c2)CC1 [Saracatinib] + N=C(N)NC(=N)NCCc1ccccc1 [Phenformin] (partner 250 µM) ; retrieve measured relative viability.
Resp: 0.298

---

# Tested on: NCI-H522
# experimental.protocol: relative viability (nuclei count vs DMSO), 5 days (fraction); higher = more cells survive
# setup.conditions: first compound 6.325 µM
Assign labels as follows, please: yes (1) for relative viability below 0.7; no (0) for relative viability equal to or exceeding 0.7.

>  <molecule>
Cc1csc(=NC2CCCCC2)n1/N=C/c1ccc(O)c(O)c1O [MIM1] + NC(=O)Nc1cc(-c2cccc(F)c2)sc1C(=O)N[C@H]1CCCNC1 [AZD7762] (partner 0.2 µM)

>  <measured.on>
NCI-H522

>  <answer.label>
no (0)

$$$$
>  <molecule>
Cc1csc(=NC2CCCCC2)n1/N=C/c1ccc(O)c(O)c1O [MIM1] + CC(=O)c1c(C)c2cnc(Nc3ccc(N4CCNCC4)cn3)nc2n(C2CCCC2)c1=O [Palbociclib] (partner 0.5 µM)

>  <measured.on>
NCI-H522

>  <answer.label>
no (0)

$$$$
>  <molecule>
Cc1csc(=NC2CCCCC2)n1/N=C/c1ccc(O)c(O)c1O [MIM1] + O=C(c1cc(Cc2n[nH]c(=O)c3ccccc23)ccc1F)N1CCN(C(=O)C2CC2)CC1 [Olaparib] (partner 8 µM)

>  <measured.on>
NCI-H522

>  <answer.label>
no (0)

$$$$
>  <molecule>
Cc1csc(=NC2CCCCC2)n1/N=C/c1ccc(O)c(O)c1O [MIM1] + N=C(N)NC(=N)NCCc1ccccc1 [Phenformin] (partner 250 µM)

>  <measured.on>
NCI-H522

>  <answer.label>
yes (1)

$$$$

Req: Quick check: does Cc1csc(=NC2CCCCC2)n1/N=C/c1ccc(O)c(O)c1O [MIM1] + Nc1nc2[nH]cc(CCc3ccc(C(=O)N[C@@H](CCC(=O)O)C(=O)O)cc3)c2c(=O)[nH]1 [Pemetrexed] (partner 0.2 µM) have relative viability under 0.7?
Resp: no (0)

---

What relative viability was measured for each of the following?
# Tested on: NCI-H2009
# experimental.protocol: relative viability (nuclei count vs DMSO), 5 days (fraction); higher = more cells survive
# setup.conditions: first compound 0.253 µM
Give bare numbers.

Some molecules with known relative viability results, for comparison:
>  <molecule>
Nc1cccc2c1CN(C1CCC(=O)NC1=O)C2=O (stereo not given) [Lenalidomide] + CC(=O)c1c(C)c2cnc(Nc3ccc(N4CCNCC4)cn3)nc2n(C2CCCC2)c1=O [Palbociclib] (partner 0.5 µM)

>  <numeric.readout>
0.206

$$$$
>  <molecule>
Nc1cccc2c1CN(C1CCC(=O)NC1=O)C2=O (stereo not given) [Lenalidomide] + Nc1ncn([C@H]2C[C@H](O)[C@@H](CO)O2)c(=O)n1 [Decitabine] (partner 2 µM)

>  <numeric.readout>
0.415

$$$$
>  <molecule>
Nc1cccc2c1CN(C1CCC(=O)NC1=O)C2=O (stereo not given) [Lenalidomide] + COc1cccc2cc(-c3nc([C@H]4CC[C@H](C(=O)O)CC4)n4ncnc(N)c34)[nH]c12 [OSI-027] (partner 0.5 µM)

>  <numeric.readout>
0.627

$$$$
>  <molecule>
Nc1cccc2c1CN(C1CCC(=O)NC1=O)C2=O (stereo not given) [Lenalidomide] + O=C(c1cc(Cc2n[nH]c(=O)c3ccccc23)ccc1F)N1CCN(C(=O)C2CC2)CC1 [Olaparib] (partner 8 µM)

>  <numeric.readout>
0.623

$$$$

In the following, a different molecule is considered.
Req: Param item = Nc1cccc2c1CN(C1CCC(=O)NC1=O)C2=O (stereo not given) [Lenalidomide] + Cc1nc(NC(=O)N2CCC[C@H]2C(N)=O)sc1-c1ccnc(C(C)(C)C(F)(F)F)c1 [Alpelisib] (partner 2 µM) ; retrieve measured relative viability.
Resp: 1.1

---

# Test system: NCI-H1395
# experimental.protocol: relative viability (nuclei count vs DMSO), 5 days (fraction); higher = more cells survive
# setup.conditions: first compound 0.06325 µM
measured.quantity: relative viability
Numbers only.

Some compounds with known relative viability results, for comparison:
>  <compound>
CCNC(=O)c1noc(-c2cc(C(C)C)c(O)cc2O)c1-c1ccc(CN2CCOCC2)cc1 [Luminespib] + O=C(CCCCCCC(=O)Nc1ccccc1)NO [Vorinostat] (partner 1 µM)

>  <measured.on>
NCI-H1395

>  <relative viability>
0.289

$$$$
>  <compound>
CCNC(=O)c1noc(-c2cc(C(C)C)c(O)cc2O)c1-c1ccc(CN2CCOCC2)cc1 [Luminespib] + COc1cc2c(Oc3ccc(NC(=O)C4(C(=O)Nc5ccc(F)cc5)CC4)cc3F)ccnc2cc1OCCCN1CCOCC1 [Foretinib] (partner 0.25 µM)

>  <measured.on>
NCI-H1395

>  <relative viability>
0.568

$$$$
>  <compound>
CCNC(=O)c1noc(-c2cc(C(C)C)c(O)cc2O)c1-c1ccc(CN2CCOCC2)cc1 [Luminespib] + N=C(N)NC(=N)NCCc1ccccc1 [Phenformin] (partner 250 µM)

>  <measured.on>
NCI-H1395

>  <relative viability>
0.326

$$$$
>  <compound>
CCNC(=O)c1noc(-c2cc(C(C)C)c(O)cc2O)c1-c1ccc(CN2CCOCC2)cc1 [Luminespib] + CC(=O)c1c(C)c2cnc(Nc3ccc(N4CCNCC4)cn3)nc2n(C2CCCC2)c1=O [Palbociclib] (partner 0.5 µM)

>  <measured.on>
NCI-H1395

>  <relative viability>
0.338

$$$$
>  <compound>
CCNC(=O)c1noc(-c2cc(C(C)C)c(O)cc2O)c1-c1ccc(CN2CCOCC2)cc1 [Luminespib] + Cc1nc(NC(=O)N2CCC[C@H]2C(N)=O)sc1-c1ccnc(C(C)(C)C(F)(F)F)c1 [Alpelisib] (partner 2 µM)

>  <measured.on>
NCI-H1395

>  <relative viability>
0.469

$$$$

In the following, a different compound is considered.
Req: Param item = CCNC(=O)c1noc(-c2cc(C(C)C)c(O)cc2O)c1-c1ccc(CN2CCOCC2)cc1 [Luminespib] + CC1(C)CCC(c2ccc(Cl)cc2)=C(CN2CCN(c3ccc(C(=O)NS(=O)(=O)c4ccc(N[C@H](CCN5CCOCC5)CSc5ccccc5)c(S(=O)(=O)C(F)(F)F)c4)cc3)CC2)C1 [Navitoclax] (partner 0.5 µM) ; retrieve measured relative viability.
Resp: 0.407
